# Test system: Melanocortin receptor 4 (Homo sapiens, UniProt P32245)
# Sequence (P32245 whole entry): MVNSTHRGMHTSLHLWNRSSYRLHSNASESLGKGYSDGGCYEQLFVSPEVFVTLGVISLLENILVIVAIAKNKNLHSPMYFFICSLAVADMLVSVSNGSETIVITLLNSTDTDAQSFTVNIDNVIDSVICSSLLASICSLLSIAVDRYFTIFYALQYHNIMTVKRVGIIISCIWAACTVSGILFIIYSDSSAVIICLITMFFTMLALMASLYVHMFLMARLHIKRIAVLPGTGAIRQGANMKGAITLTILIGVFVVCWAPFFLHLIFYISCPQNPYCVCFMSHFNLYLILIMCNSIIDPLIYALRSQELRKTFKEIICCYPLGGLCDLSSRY
# Assay remarks: Displacement of [125I]-NDP-alpha-MSH from human MC4 receptor expressed in HEK293 cells at 10 uM by gamma counting analysis
# Format: cell-based
Quantity measured: %max (%)

Completed entries (count: 3):
>  <Molecular string>
CC(=O)N[C@H]1Cn2nncc2CN([C@H](Cc2ccccc2)C(=O)N[C@@H](CCCNC(=N)N)C(=O)N[C@@H](Cc2c[nH]c3ccccc23)C(N)=O)C1=O

>  <Test system>
Melanocortin receptor 4 (Homo sapiens, UniProt P32245)

>  <Value unit>
%

>  <%max>
80

$$$$
>  <Molecular string>
CC(=O)N[C@H]1Cc2c([nH]c3ccccc23)CN([C@H](Cc2ccc(Br)cc2)C(=O)N[C@@H](CCCNC(=N)N)C(=O)N[C@@H](Cc2c[nH]c3ccccc23)C(N)=O)C1=O

>  <Test system>
Melanocortin receptor 4 (Homo sapiens, UniProt P32245)

>  <Value unit>
%

>  <%max>
100

$$$$
>  <Molecular string>
CC(=O)N[C@H]1Cc2ccccc2CN([C@H](Cc2ccccc2)C(=O)N[C@@H](CCCNC(=N)N)C(=O)N[C@@H](Cc2c[nH]c3ccccc23)C(N)=O)C1=O

>  <Test system>
Melanocortin receptor 4 (Homo sapiens, UniProt P32245)

>  <Value unit>
%

>  <%max>
80

$$$$

I. CC(=O)N[C@H]1Cc2c([nH]c3ccccc23)CN([C@H](Cc2ccccc2)C(=O)N[C@@H](CCCNC(=N)N)C(=O)N[C@@H](Cc2c[nH]c3ccccc23)C(N)=O)C1=O
II. CC(=O)N[C@H]1Cc2c([nH]c3ccccc23)CN([C@H](Cc2ccc(F)cc2)C(=O)N[C@@H](CCCNC(=N)N)C(=O)N[C@@H](Cc2c[nH]c3ccccc23)C(N)=O)C1=O
Q. Sorting by %max in descending order, would I or II appear first? When you have decided, please share the label of that item.
A. II
(II: 80%, I: 50%)
